Assay: Quantum yield measurements
Format: physicochemical
Settings: referred to Rhodamine B in EtOH, excitation 510 nm, emission integrated 540-800 nm
Measurement Label: φ (quantum yield)
Respond with the number and no other words.

Q: I'd like to know its φ (quantum yield). The compound in question is CC1=CC(/C=C/c2cccc(C=O)c2)=[N+]2C1=C(CCN)c1cccn1[B-]2(F)F [BDM-391]
Ans: 0.31

Q: Give its φ (quantum yield) value. Item: COc1c(/C=C/C2=[N+]3C(=C(CCN)c4cccn4[B-]3(F)F)C(C)=C2)cc(C(C)(C)C)cc1C(C)(C)C [BDM-325]
Ans: 0.47

Q: Field request: φ (quantum yield) | item: COc1ccc(-c2ccc(/C=C/C3=[N+]4C(=C(CCN)c5cccn5[B-]4(F)F)C(C)=C3)o2)cc1Cl [BDM-195]
Ans: 0.03

Query compound follows.
Q: Data request, read-out φ (quantum yield), for CC1=CC(/C=C/c2csc3ccccc23)=[N+]2C1=C(CCN)c1cccn1[B-]2(F)F [BDM-37]
Ans: 0.15

###

As shown below, each of these molecules has a reported λmax (ABS) value.
Assay: Spectroscopic properties of the BDM library (absorbance and emission maxima)
Format: physicochemical
Please reply with the bare figure in nm and do not write the unit itself.

Record excerpt, results attached:
Q: State the recorded λmax (ABS) for this entry: CCCCCCOc1ccc(/C=C/c2cc(C)c3n2[B-](F)(F)[N+]2=CC=CC2=C3CCN)cc1
Ans: 564

Q: Which measured λmax (ABS) value corresponds to COc1cccc(/C=C/C2=[N+]3C(=C(CCN)c4cccn4[B-]3(F)F)C(C)=C2)c1Cl ?
Ans: 554

Q: λmax (ABS) for CC1=CC(/C=C/c2ccc3c4c(cccc24)CC3)=[N+]2C1=C(CCN)c1cccn1[B-]2(F)F ?
Ans: 576

Q: Quick check: λmax (ABS) of COc1ccc(/C=C/C2=[N+]3C(=C(CCN)c4cccn4[B-]3(F)F)C(C)=C2)c(OC)c1C ?
Ans: 566

Q: For the molecule shown here, COc1ccc(-c2ccc(/C=C/C3=[N+]4C(=C(CCN)c5cccn5[B-]4(F)F)C(C)=C3)o2)cc1Cl , give the reported λmax (ABS).
Ans: 600

Q: Could you tell me which λmax (ABS) is on file for CC1=CC(/C=C/c2cccc(Oc3ccccc3)c2)=[N+]2C1=C(CCN)c1cccn1[B-]2(F)F ?
Ans: 554

***
Q: Could you share which λmax (ABS) value was measured for COc1cc(Cl)cc(/C=C/C2=[N+]3C(=C(CCN)c4cccn4[B-]3(F)F)C(C)=C2)c1OC ?
Ans: 558

Q: Look up λmax (ABS): CC1=CC(/C=C/c2ccc(OCc3ccc(F)cc3)cc2)=[N+]2C1=C(CCN)c1cccn1[B-]2(F)F
Ans: 563

###

Experiment: Spectroscopic properties of the BDM library (absorbance and emission maxima)
Assay type: physicochemical
Measurement Label: λmax (EM) (nm)
The answer is to be given in nm; state only the numeric part.

Q: // query λmax (EM) value for entry CCOc1ccc(/C=C/C2=[N+]3C(=C(CCN)c4cccn4[B-]3(F)F)C(C)=C2)cc1
Ans: 586

Q: May I ask what λmax (EM) has been recorded for CC1=CC(/C=C/c2ccc(SC(F)(F)F)cc2)=[N+]2C1=C(CCN)c1cccn1[B-]2(F)F ?
Ans: 564

Q: // λmax (EM) lookup, key: Cc1ccc(O)c(/C=C/c2cc(C)c3n2[B-](F)(F)[N+]2=CC=CC2=C3CCN)c1
Ans: 580

New cases:
Q: Can you share its λmax (EM)? I mean this compound: Cc1cc(/C=C/c2ccc(C=O)cc2)n2c1C(CCN)=C1C=CC=[N+]1[B-]2(F)F
Ans: 572

Q: Consider the compound COc1ccc(/C=C/C2=[N+]3C(=C(CCN)c4cccn4[B-]3(F)F)C(C)=C2)cc1 and give its measured λmax (EM).
Ans: 583

Q: Report λmax (EM) for CC1=CC(/C=C/c2ccc(C)cc2)=[N+]2C1=C(CCN)c1cccn1[B-]2(F)F please.
Ans: 572

Q: Could you share which λmax (EM) value was measured for CC1=CC(/C=C/c2ccc(C(C)(C)C)cc2)=[N+]2C1=C(CCN)c1cccn1[B-]2(F)F ?
Ans: 567

Q: Give the measured λmax (EM) of Cc1cc(/C=C/c2ccc(C)c3ccccc23)n2c1C(CCN)=C1C=CC=[N+]1[B-]2(F)F .
Ans: 595

# credit: patent US9267949B2
